Taken from paper PMC7321382.

# Tested on: S. aureus 16207
Catalogue of MIC readings, one per entry.
observationType: MIC

>>> assayresult("CN(C)CCCNC(=O)c1cc(Br)c[nH]1 [Compound 27d]")
"> 32 µM"
>>> assayresult("O=C(NCCCCNCCCNC(=O)c1ccc[nH]1)c1ccc[nH]1 [Compound 17a]")
"> 32 µM"
>>> assayresult("NCCCNCCNC(=O)c1cc(Br)c[nH]1 [Compound 21]")
"> 32 µM"
>>> assayresult("NCCCNCCNC(=O)c1cc(Br)c(Br)[nH]1 [Compound 23]")
"> 32 µM"
>>> assayresult("O=C(NCCCNCCCCNCCCNC(=O)c1cc(Br)c(Br)[nH]1)c1cc(Br)c(Br)[nH]1 [Compound 19e]")
"2 to 4 µM"
>>> assayresult("O=C(NCCCNCCCNCCCNC(=O)c1cc(I)c[nH]1)c1cc(I)c[nH]1 [Compound 18f]")
"16 to 32 µM"
>>> assayresult("O=C(NCCCNCCCCNCCCNC(=O)c1ccc[nH]1)c1ccc[nH]1 [Compound 19a]")
"> 32 µM"
>>> assayresult("O=C(NCCCCCCNCCCCCCNC(=O)c1cc(Cl)c[nH]1)c1cc(Cl)c[nH]1 [Compound 15b]")
"> 32 µM"
>>> assayresult("[H]/N=C(/N)N[C@H]1[C@H](O)[C@@H](O)[C@H](O[C@@H]2O[C@@H](C)[C@](O)(C=O)[C@H]2O[C@@H]2O[C@@H](CO)[C@H](O)[C@@H](O)[C@@H]2NC)[C@@H](N/C(N)=N\\[H])[C@@H]1O [Streptomycin, streptomycin, reference compound]")
"0.625 to 1.25 µM"
>>> assayresult("O=C(NCCCCNC(=O)c1ccc[nH]1)c1ccc[nH]1 [Compound 12a]")
"> 32 µM"
>>> assayresult("NCCNCCCNC(=O)c1cc(Br)c(Br)[nH]1 [Compound 24]")
"> 32 µM"
>>> assayresult("O=C(NCCCCNC(=O)c1cc(I)c[nH]1)c1cc(I)c[nH]1 [Compound 12f]")
"> 32 µM"
>>> assayresult("O=C(NCCCCNCCCNC(=O)c1cc(I)c[nH]1)c1cc(I)c[nH]1 [Compound 17f]")
"> 32 µM"
>>> assayresult("O=C(NCCCCCCNCCCCCCNC(=O)c1cc(Br)c[nH]1)c1cc(Br)c[nH]1 [Compound 15d]")
"> 32 µM"
>>> assayresult("O=C(NCCCNCCNC(=O)c1cc(Cl)c[nH]1)c1cc(Cl)c[nH]1 [Compound 16b]")
"> 32 µM"
>>> assayresult("O=C(NCCCCCCNCCCCCCNC(=O)c1cc(I)c[nH]1)c1cc(I)c[nH]1 [Compound 15f]")
"> 32 µM"
>>> assayresult("O=C(NCCNCCNC(=O)c1cc(Cl)c(Cl)[nH]1)c1cc(Cl)c(Cl)[nH]1 [Compound 13c]")
"> 32 µM"

----------
observationType: melting point

>>> assayresult("O=C(NCCCNCCNC(=O)c1cc(Cl)c(Cl)[nH]1)c1cc(Cl)c(Cl)[nH]1 [Compound 16c]")
"133 to 135 °C"
>>> assayresult("O=C(NCCCNCCCNCCCNC(=O)c1cc(Cl)c(Cl)[nH]1)c1cc(Cl)c(Cl)[nH]1 [Compound 18c]")
"109 to 111 °C"
>>> assayresult("O=C(NCCNCCNC(=O)c1cc(Br)c[nH]1)c1cc(Br)c[nH]1 [Compound 13d]")
"201 to 203 °C"
>>> assayresult("O=C(NCCNCCNC(=O)c1ccc[nH]1)c1ccc[nH]1 [Compound 13a]")
"191 to 193 °C"
>>> assayresult("O=C(NCCCNCCCNC(=O)c1cc(Cl)c[nH]1)c1cc(Cl)c[nH]1 [Compound 14b]")
"78 to 80 °C"
>>> assayresult("O=C(NCCCNCCNC(=O)c1cc(Br)c[nH]1)c1cc(Br)c[nH]1 [Compound 16d]")
"188 to 190 °C"
>>> assayresult("O=C(NCCNCCNC(=O)c1cc(I)c[nH]1)c1cc(I)c[nH]1 [Compound 13f]")
"193 to 195 °C"
>>> assayresult("CC(C)(C)OC(=O)NCCCNC(=O)c1cc(I)c[nH]1 [Compound 28f]")
"128 to 130 °C"
>>> assayresult("O=C(NCCCNCCCNC(=O)c1cc(I)c[nH]1)c1cc(I)c[nH]1 [Compound 14f]")
"93 to 95 °C"
>>> assayresult("O=C(NCCCCCCNCCCCCCNC(=O)c1ccc[nH]1)c1ccc[nH]1 [Compound 15a]")
"129 to 131 °C"
>>> assayresult("O=C(NCCCNCCCNCCCNC(=O)c1cc(I)c[nH]1)c1cc(I)c[nH]1 [Compound 18f]")
"78 to 80 °C"
>>> assayresult("O=C(NCCNCCNC(=O)c1cc(Br)c(Br)[nH]1)c1cc(Br)c(Br)[nH]1 [Compound 13e]")
"> 230 °C"
>>> assayresult("O=C(NCCCNCCCNC(=O)c1ccc[nH]1)c1ccc[nH]1 [Compound 14a]")
"165 to 166 °C"
>>> assayresult("CC(C)(C)OC(=O)NCCCNC(=O)c1ccc[nH]1 [Compound 28a]")
"90 to 91 °C"
>>> assayresult("O=C(NCCCCNC(=O)c1ccc[nH]1)c1ccc[nH]1 [Compound 12a]")
"215 to 216 °C"
>>> assayresult("O=C(NCCCNCCNC(=O)c1cc(Cl)c[nH]1)c1cc(Cl)c[nH]1 [Compound 16b]")
"167 to 169 °C"
>>> assayresult("O=C(NCCCNCCNC(=O)c1ccc[nH]1)c1ccc[nH]1 [Compound 16a]")
"69 to 71 °C"
>>> assayresult("O=C(NCCCCCCNCCCCCCNC(=O)c1cc(I)c[nH]1)c1cc(I)c[nH]1 [Compound 15f]")
"174 to 176 °C"
>>> assayresult("O=C(NCCNCCNC(=O)c1cc(Cl)c(Cl)[nH]1)c1cc(Cl)c(Cl)[nH]1 [Compound 13c]")
"> 230 °C"
>>> assayresult("O=C(NCCCCNC(=O)c1cc(Br)c(Br)[nH]1)c1cc(Br)c(Br)[nH]1 [Compound 12e]")
"> 230 °C"
>>> assayresult("O=C(NCCCNCCCCNCCCNC(=O)c1cc(Cl)c(Cl)[nH]1)c1cc(Cl)c(Cl)[nH]1 [Compound 19c]")
"110 to 112 °C"
>>> assayresult("O=C(NCCCNCCCCNCCCNC(=O)c1cc(Br)c[nH]1)c1cc(Br)c[nH]1 [Compound 19d]")
"173 to 175 °C"
>>> assayresult("O=C(NCCCNCCCCNCCCNC(=O)c1cc(I)c[nH]1)c1cc(I)c[nH]1 [Compound 19f]")
"173 to 175 °C"
>>> assayresult("O=C(NCCCCNC(=O)c1cc(Cl)c[nH]1)c1cc(Cl)c[nH]1 [Compound 12b]")
"> 230 °C"
>>> assayresult("O=C(NCCCCNC(=O)c1cc(Br)c[nH]1)c1cc(Br)c[nH]1 [Compound 12d]")
"> 230 °C"
>>> assayresult("O=C(NCCCCNCCCNC(=O)c1cc(I)c[nH]1)c1cc(I)c[nH]1 [Compound 17f]")
"89 to 90 °C"
>>> assayresult("O=C(NCCCNCCCNC(=O)c1cc(Br)c(Br)[nH]1)c1cc(Br)c(Br)[nH]1 [Compound 14e]")
"135 to 137 °C"
>>> assayresult("O=C(NCCCCNCCCNC(=O)c1cc(Cl)c[nH]1)c1cc(Cl)c[nH]1 [Compound 17b]")
"80 to 81 °C"

----------
# Tested on: HEK293 human embryonic kidney cells
# testName: Cytotoxicity, sulforhodamine B cell proliferation assay
# Assay type: cell-based
# studyConditions: Homo sapiens, 72 h; HEK293 cells, 16 µM compound, 3 days; relative to control with no treatment; mean ± SD of triplicates
# Procedure: As described previously, cell proliferation was measured by sulforhodamine B colorimetric assay in which 2000 HEK293 human embryonic kidney cells were seeded in 96-well plates in the presence of varying concentrations of drugs. The sulforhodamine B colorimetric assay, which is based on the measurement of cellular protein content, was used to measure cell density. […] The protein-bound dye was dissolved in Tris base solution (10 mM) for optical density determination at 510 nm using a microplate reader. […]
Catalogue of relative growth of HEK293 cells (% of untreated control) at 16 µM readings, one per entry.
observationType: relative growth of HEK293 cells (% of untreated control) at 16 µM (%)

>>> assayresult("O=C(NCCCNCCNC(=O)c1cc(Cl)c(Cl)[nH]1)c1cc(Cl)c(Cl)[nH]1 [Compound 16c]")
2.5
>>> assayresult("O=C(NCCCCCCNCCCCCCNC(=O)c1cc(Br)c(Br)[nH]1)c1cc(Br)c(Br)[nH]1 [Compound 15e]")
1.3
>>> assayresult("O=C(NCCCNCCNC(=O)c1cc(Br)c(Br)[nH]1)c1cc(Br)c(Br)[nH]1 [Compound 16e]")
2.6
>>> assayresult("O=C(NCCCNCCCNC(=O)c1cc(Br)c(Br)[nH]1)c1cc(Br)c(Br)[nH]1 [Compound 14e]")
1.1
>>> assayresult("O=C(NCCCCCCNCCCCCCNC(=O)c1cc(Cl)c(Cl)[nH]1)c1cc(Cl)c(Cl)[nH]1 [Compound 15c]")
1.8
>>> assayresult("O=C(NCCCNCCCCNCCCNC(=O)c1cc(Cl)c(Cl)[nH]1)c1cc(Cl)c(Cl)[nH]1 [Compound 19c]")
1.6
>>> assayresult("O=C(NCCCNCCCCNCCCNC(=O)c1cc(Br)c(Br)[nH]1)c1cc(Br)c(Br)[nH]1 [Compound 19e]")
94.5
>>> assayresult("O=C(NCCCNCCCNCCCNC(=O)c1cc(Br)c(Br)[nH]1)c1cc(Br)c(Br)[nH]1 [Compound 18e]")
2.1
>>> assayresult("O=C(NCCCCNCCCNC(=O)c1cc(Br)c(Br)[nH]1)c1cc(Br)c(Br)[nH]1 [Pseudoceratine 1, pseudoceratidine]")
0.7
>>> assayresult("O=C(NCCCNCCCNC(=O)c1cc(Cl)c(Cl)[nH]1)c1cc(Cl)c(Cl)[nH]1 [Compound 14c]")
0.5
>>> assayresult("O=C(NCCCNCCCNCCCNC(=O)c1cc(Cl)c(Cl)[nH]1)c1cc(Cl)c(Cl)[nH]1 [Compound 18c]")
98
